Test: yeast display, Sf9 membrane polyspecificity reagent, FACS + sequencing; frameworks hold sequencing errors
Endpoint: polyreactivity (PSR sort gate)

Sample answers from the record:
[[record]]
seq = "QVQLVESGGGLVQAGGSLRLSCAASGSIFDSYAMGWYRQAPGKEWELVAAISGNSDSTYYADSVKGRFTISRDNAKNTVYLQMNSLKPEDTAVYYCAKEGGNGYDYWGQGTQVTVSS"
result = "low polyreactivity"

[[record]]
seq = "QVHLVESGGGLVQAGGSLRLSCAASGRIFRKYAIGWYRQAPGKERELVAAISFSGTSTYYADSVKGRFTISRDNAKNTVYLQMNSLKPEDTAVYYCAAVYRQGTGYVDYDSWGQGTQVTVSS"
result = "low polyreactivity"

[[record]]
seq = "QVQLEESGGGLVQAGGILRLSCAASGSMFVAYTMGWYRQEPGKERELVAAISRGGSTNYADSVKGRFTISRDNAKTTVYLQMNSLKPEDTAVYYCAAKVWDGQLLYYWGQGTQVTVSS"
result = "low polyreactivity"

[[record]]
seq = "QVQLVESGGGLVQAGGSLRLSCAPSGRIFSFNTMVLYRHAPGTEREFVATIRYSGGSTYADSVKGRFTISRDNAKNTVYLQMNSLKPEDTAVYYCAAAWWSYKFNRDFDYWGQGTQVTVSS"
result = "low polyreactivity"

[[record]]
seq = "QVQLVESGGGLVQAGGSLRLSCAASGFTFSTNAMGWYRQAPGKERELVAAISRGGSTNYADSVKGRFTISRDIAKNTVYLQMNSLKPEDTAVYYCNAYQSPDEEEYYWGQGTQVTVSS"
result = "low polyreactivity"

[[record]]
seq = "QVQLVESGGGLVQAGGSLRLSCAASGSTFVNNAMGWYRQAPGKERELVAAISKTGGRTRYADSVKGRFTISRDNAKNTVYLQMNSLKPEDTAVYYCAARYYGGGYNYWGQGTQVTVSS"
result = "high polyreactivity"

[[record]]
seq = "QVQLVETGGVLVQAGGSLSLSCAASGSTFGWYVMGWYRQAPGKERELVAAITYSGDSTYYADSVKGRFTISRDNAKNTVYLQMNSLKPEDTAVYYCAADLSGYGKRYDYWGQGNQVTVSS"
result = "low polyreactivity"

[[record]]
seq = "QVQLVESGGGLVQAGGTLRLSCAASGLIFVRYAMGWYRQAPGKERELVATITDGGSKYYADSVKGRFTISRDNAKNTVYLQMNSLKPEDTAVYYCNKDRVSVRYEYWGQGTQVTVSS"
result = "low polyreactivity"


Please look at the items below and tell me polyreactivity (PSR sort gate) for each one, in order.
1. QVQLVESGGGLVQAGGSLRLSCAASGSTFQFYAMGWSRQAPGKERELVATISSGDSTNYADSVKGRFTISRDNAKNTVYLQMNSLKPEDTAVYYCAADFWGQYQGLDGGDYWGQGTQVTVSS
2. QVQLVESGGGLVQAGGSLRLSCAASGSIFTYYAMGWYRQAPGKEREFVAAINRSGGSTYYADSVKGRFTISRDNAKYTVYLQMNSLKPEDTAVYYCAARRGSGALRYNYWGQGTQVTVSS
3. QVQLVESGGGLVQAGGSLRLSCAASGGTFVFYAMGWYIQAPGKERELVAAISSAGRTYYADAVKGRFTISRDNAKTTVYLQMNSLKPEETAVYYCAAVSSQYDGRYYYWGQGTQVTVSS

Result:
low polyreactivity
high polyreactivity
high polyreactivity
